- EXPERIMENT: Inhibition of Hedgehog signaling pathway in mouse ASZ001 cells assessed as reduction in […] Gli1 mRNA expression after 48 hrs by q-PCR analysis
- Assay type: cell-based
- RUN_PARAMETERS: ASZ001, 48 h
pIC50: −log10 of the molar value.

TEST_SMILES	pIC50
C[C@H](CCCC(C)(C)O)[C@H]1CC[C@H]2[C@H](CNc3cccc(O)c3)CCC[C@]12C	5.89
COC(C)(C)CCC[C@@H](C)[C@H]1CC[C@H]2[C@@H](Nc3cccc(O)c3)CCC[C@]12C	6.22
CC(C)CCC[C@@H](C)[C@H]1CC[C@H]2[C@H](CNc3cccc(O)c3)CCC[C@]12C	5.92
COC(C)(C)CCC[C@@H](C)[C@H]1CC[C@H]2[C@H](CNc3cccc(O)c3)CCC[C@]12C	6.15
COC(C)(C)CCC[C@@H](C)[C@H]1CC[C@H]2[C@@H](OC(=O)c3cccc(O)c3)CCC[C@]12C	6.00
CC(C)CCC[C@@H](C)[C@H]1CC[C@H]2[C@H](CNc3ccc(O)cc3)CCC[C@]12C	6.22

====

- EXPERIMENT: Half life in rat liver homogenates
- Type: ADME, tissue-based

TEST_SMILES	half-life
C=C1/C(=C\C=C2/CCC[C@]3(C)[C@@H]([C@H](C)CCCC(C)(C)O)CC[C@@H]23)C[C@@H](O)C[C@@H]1O	> 2 h

====

- TARGET: Vitamin D3 receptor (Mus musculus)
- Sequence (P48281 whole entry): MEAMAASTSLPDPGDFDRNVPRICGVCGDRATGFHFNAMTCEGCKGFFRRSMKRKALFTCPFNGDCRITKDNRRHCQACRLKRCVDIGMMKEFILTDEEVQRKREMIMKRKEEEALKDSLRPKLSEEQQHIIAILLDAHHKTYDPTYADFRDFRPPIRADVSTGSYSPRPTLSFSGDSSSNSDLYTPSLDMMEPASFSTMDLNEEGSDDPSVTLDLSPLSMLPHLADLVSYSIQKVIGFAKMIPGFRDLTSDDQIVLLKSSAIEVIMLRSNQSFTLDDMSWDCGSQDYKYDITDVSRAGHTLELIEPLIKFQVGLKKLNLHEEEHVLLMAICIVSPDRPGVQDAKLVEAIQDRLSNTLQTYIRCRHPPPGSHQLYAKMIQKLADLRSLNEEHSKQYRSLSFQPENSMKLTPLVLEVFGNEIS
- EXPERIMENT: Activation of VDR in mouse ASZ001 cells assessed as change in Cyp24A1 mRNA expression after 48 hrs by q-PCR analysis
VALUE_KIND: EC50 (nM)

COMPOUND	NUMERIC_VALUE
CCC(CC)(c1ccc(OCC(O)CO)c(C)c1)c1ccc(OCC(O)C(C)(C)C)c(C)c1 (configuration not stated)	7.7
C[C@H](CCCC(C)(C)O)[C@H]1CC[C@H]2[C@@H](Nc3ccc(O)cc3)CCC[C@]12C	600
COC(C)(C)CCC[C@@H](C)[C@H]1CC[C@H]2[C@@H](Nc3cccc(O)c3)CCC[C@]12C	700
COC(C)(C)CCC[C@@H](C)[C@H]1CC[C@H]2[C@H](CNc3cccc(O)c3)CCC[C@]12C	600
C[C@H](CCCC(C)(C)O)[C@H]1CC[C@H]2[C@H](CNc3ccc(O)cc3)CCC[C@]12C	1300
C=C1CC[C@H](O)C/C1=C/C=C1\CCC[C@]2(C)[C@@H]([C@H](C)CCCC(C)(C)O)CC[C@@H]12 [CALCIFEDIOL ANHYDROUS]	600
C=C1CC[C@H](O)C/C1=C/C=C1\CCC[C@]2(C)[C@@H]([C@H](C)CCCC(C)C)CC[C@@H]12	900

====

- EXPERIMENT: Inhibition of Hedgehog signaling pathway in mouse ASZ001 cells assessed as reduction in […] Gli1 mRNA expression after 48 hrs by q-PCR analysis
- Format: cell-based
- RUN_PARAMETERS: ASZ001, 48 h
VALUE_KIND: IC50 (µM)

TEST_SMILES	NUMERIC_VALUE
CC(C)CCC[C@@H](C)[C@H]1CC[C@H]2[C@@H](NCc3ccc(O)cc3)CCC[C@]12C	0.3
C[C@H](CCCC(C)(C)O)[C@H]1CC[C@H]2[C@@H](OC(=O)c3cccc(O)c3)CCC[C@]12C	0.4
C[C@H](CCCC(C)(C)O)[C@H]1CC[C@H]2[C@@H](Nc3ccc(O)cc3)CCC[C@]12C	0.2
C[C@H](CCCC(C)(C)O)[C@H]1CC[C@H]2[C@@H](Nc3cccc(O)c3)CCC[C@]12C	0.1

====

- EXPERIMENT: Clearance in human liver microsomes assessed per mg protein at 1 uM by LC-MS/MS analysis

TEST_SMILES	INEQUALITY_SYMBOL	CLH
COC(C)(C)CCC[C@@H](C)[C@H]1CC[C@H]2[C@@H](OC(=O)c3cccc(O)c3)CCC[C@]12C	=	15
CC(C)CCC[C@@H](C)[C@H]1CC[C@H]2[C@H](CNc3ccc(O)cc3)CCC[C@]12C	<	3
COC(C)(C)CCC[C@@H](C)[C@H]1CC[C@H]2[C@H](CNc3cccc(O)c3)CCC[C@]12C	=	16
CC(C)CCC[C@@H](C)[C@H]1CC[C@H]2[C@@H](OC(=O)c3cccc(O)c3)CCC[C@]12C	<	3
CC(C)CCC[C@@H](C)[C@H]1CC[C@H]2[C@@H](NC(=O)c3cccc(O)c3)CCC[C@]12C	<	3
CC(C)CCC[C@@H](C)[C@H]1CC[C@H]2[C@H](Nc3ccc(O)cc3)CCC[C@]12C	<	3
COC(C)(C)CCC[C@@H](C)[C@H]1CC[C@H]2[C@@H](Nc3cccc(O)c3)CCC[C@]12C	<	3
CC(C)CCC[C@@H](C)[C@H]1CC[C@H]2[C@@H](Nc3ccc(O)cc3)CCC[C@]12C	=	12
C[C@H](CCCC(C)(C)O)[C@H]1CC[C@H]2[C@@H](OC(=O)c3cccc(O)c3)CCC[C@]12C	=	15

====

- TARGET: Vitamin D3 receptor (Mus musculus) (UniProt P48281)
- Sequence (whole entry): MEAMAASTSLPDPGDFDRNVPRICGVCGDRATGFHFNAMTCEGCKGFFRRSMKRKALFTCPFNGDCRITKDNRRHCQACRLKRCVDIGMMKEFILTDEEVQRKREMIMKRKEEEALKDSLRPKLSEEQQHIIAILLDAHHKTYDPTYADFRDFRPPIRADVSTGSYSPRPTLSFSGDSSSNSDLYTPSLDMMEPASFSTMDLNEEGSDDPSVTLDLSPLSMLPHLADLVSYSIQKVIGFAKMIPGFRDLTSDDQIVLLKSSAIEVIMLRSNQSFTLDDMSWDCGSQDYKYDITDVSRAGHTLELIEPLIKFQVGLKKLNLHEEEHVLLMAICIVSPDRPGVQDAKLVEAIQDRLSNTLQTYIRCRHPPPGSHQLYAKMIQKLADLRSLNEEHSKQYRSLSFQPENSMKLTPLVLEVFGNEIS
- EXPERIMENT: Activation of VDR in mouse C3H10T1/2 cells assessed as change in Cyp24A1 mRNA expression at 5 uM after 24 hrs by q-PCR analysis relative to control
- Assay type: cell-based
Classes based on Activity: class 0 = under 6%, class 1 = from 6% up to 30%, class 2 = 30% and over

COMPOUND	LABEL
C[C@H](CCCC(C)(C)O)[C@H]1CC[C@H]2[C@@H](Nc3ccc(O)cc3)CCC[C@]12C	class 2
COc1ccc(N[C@H]2CCC[C@]3(C)[C@@H]([C@H](C)CCCC(C)C)CC[C@@H]23)cc1	class 0
CC(C)CCC[C@@H](C)[C@H]1CC[C@H]2[C@@H](Nc3ccc(O)cc3)CCC[C@]12C	class 2
C=C1/C(=C\C=C2/CCC[C@]3(C)[C@@H]([C@H](C)CCCC(C)(C)O)CC[C@@H]23)C[C@@H](O)C[C@@H]1O [CALCITRIOL]	class 2
C[C@H](CCCC(C)(C)O)[C@H]1CC[C@H]2[C@@H](OC(=O)c3cccc(O)c3)CCC[C@]12C	class 2
CC(C)CCC[C@@H](C)[C@H]1CC[C@H]2[C@H](CNc3cccc(O)c3)CCC[C@]12C	class 1
COC(C)(C)CCC[C@@H](C)[C@H]1CC[C@H]2[C@H](CNc3cccc(O)c3)CCC[C@]12C	class 1
COc1cccc(N[C@H]2CCC[C@]3(C)[C@@H]([C@H](C)CCCC(C)C)CC[C@@H]23)c1	class 0
COC(C)(C)CCC[C@@H](C)[C@H]1CC[C@H]2[C@@H](OC(=O)c3cccc(O)c3)CCC[C@]12C	class 1
COC(C)(C)CCC[C@@H](C)[C@H]1CC[C@H]2[C@@H](Nc3cccc(O)c3)CCC[C@]12C	class 2
CC(C)CCC[C@@H](C)[C@H]1CC[C@H]2[C@@H](Nc3ccccc3)CCC[C@]12C	class 0
C[C@H](CCCC(C)(C)O)[C@H]1CC[C@H]2[C@H](CNc3cccc(O)c3)CCC[C@]12C	class 2
CC(C)CCC[C@@H](C)[C@H]1CC[C@H]2[C@@H](NCc3ccc(O)cc3)CCC[C@]12C	class 1
C[C@H](CCCC(C)(C)O)[C@H]1CC[C@H]2[C@@H](Nc3cccc(O)c3)CCC[C@]12C	class 2
CC(C)CCC[C@@H](C)[C@H]1CC[C@H]2[C@H](CNc3ccc(O)cc3)CCC[C@]12C	class 1

Hello, the source for this data is ChEMBL document CHEMBL4382241, in case you need it.
